Sourced from the NIST ThermoML archive (doi:10.1016/j.fluid.2016.07.022)

Settings: 308.15 K; 101.33 kPa; Liquid; Frequency=3 MHz; Single path-length method
PROPERTY_NAME: speed of sound (m/s)

1. CCCCC(=O)[O-].CCCC[NH2+]CCO [N-(2-hydroxyethyl)butan-1-aminium pentanoate] | 1408.3
2. CCC(=O)[O-].CCCC[NH2+]CCO [N-(2-hydroxyethyl)butan-1-aminium propionate] | 1462.2
3. CCCC(=O)[O-].CCCC[NH2+]CCO [N-(2-hydroxyethyl)butan-1-aminium butyrate] | 1431.9
4. CC(=O)[O-].CCCC[NH2+]CCO [N-(2-hydroxyethyl)butan-1-aminium acetate] | 1510.8
5. CCCC[NH2+]CCO.O=C[O-] [N-(2-hydroxyethyl)butan-1-aminium formate] | 1574.7

* * *

Reported mass density values are given for each entry in this list.
Conditions: 313.15 K; 101.33 kPa; Liquid; Vibrating tube method
PROPERTY_NAME: mass density (kg/m3)

1. CCCC[NH2+]CCO.O=C[O-] [N-(2-hydroxyethyl)butan-1-aminium formate] | 1026.1
2. CCCCC(=O)[O-].CCCC[NH2+]CCO [N-(2-hydroxyethyl)butan-1-aminium pentanoate] | 955.8
3. CC(=O)[O-].CCCC[NH2+]CCO [N-(2-hydroxyethyl)butan-1-aminium acetate] | 1007.3
4. CCC(=O)[O-].CCCC[NH2+]CCO [N-(2-hydroxyethyl)butan-1-aminium propionate] | 990.8
5. CCCC(=O)[O-].CCCC[NH2+]CCO [N-(2-hydroxyethyl)butan-1-aminium butyrate] | 969.4

* * *

Reported viscosity values are given for each entry in this list.
Details: 298.15 K; 101.33 kPa; Liquid; Falling or rolling sphere viscometry
Numbers after ± are expanded uncertainties.
PROPERTY_NAME: viscosity

1) CCCCC(=O)[O-].CCCC[NH2+]CCO [N-(2-hydroxyethyl)butan-1-aminium pentanoate] | 684.1 ± 61 mPa·s
2) CCCC(=O)[O-].CCCC[NH2+]CCO [N-(2-hydroxyethyl)butan-1-aminium butyrate] | 576.8 ± 48 mPa·s
3) CCC(=O)[O-].CCCC[NH2+]CCO [N-(2-hydroxyethyl)butan-1-aminium propionate] | 502.6 ± 40 mPa·s
4) CC(=O)[O-].CCCC[NH2+]CCO [N-(2-hydroxyethyl)butan-1-aminium acetate] | 421.6 ± 31 mPa·s
5) CCCC[NH2+]CCO.O=C[O-] [N-(2-hydroxyethyl)butan-1-aminium formate] | 332.8 ± 22 mPa·s

* * *

Reported speed of sound values are given for each entry in this list.
Settings: 328.15 K; 101.33 kPa; Liquid; Frequency=3 MHz; Single path-length method
Numbers after ± are expanded uncertainties.
PROPERTY_NAME: speed of sound

1) CC(=O)[O-].CCCC[NH2+]CCO [N-(2-hydroxyethyl)butan-1-aminium acetate] | 1445.2 ± 3.7 m/s
2) CCCCC(=O)[O-].CCCC[NH2+]CCO [N-(2-hydroxyethyl)butan-1-aminium pentanoate] | 1343.8 ± 3.7 m/s
3) CCC(=O)[O-].CCCC[NH2+]CCO [N-(2-hydroxyethyl)butan-1-aminium propionate] | 1397.4 ± 3.7 m/s
4) CCCC(=O)[O-].CCCC[NH2+]CCO [N-(2-hydroxyethyl)butan-1-aminium butyrate] | 1366.2 ± 3.7 m/s
5) CCCC[NH2+]CCO.O=C[O-] [N-(2-hydroxyethyl)butan-1-aminium formate] | 1522.2 ± 3.7 m/s

* * *

Reported speed of sound values are given for each entry in this list.
Conditions: 323.15 K; 101.33 kPa; Liquid; Frequency=3 MHz; Single path-length method
PROPERTY_NAME: speed of sound (m/s)

1. CCC(=O)[O-].CCCC[NH2+]CCO [N-(2-hydroxyethyl)butan-1-aminium propionate] | 1413.7
2. CCCC(=O)[O-].CCCC[NH2+]CCO [N-(2-hydroxyethyl)butan-1-aminium butyrate] | 1382.4
3. CCCC[NH2+]CCO.O=C[O-] [N-(2-hydroxyethyl)butan-1-aminium formate] | 1535.1
4. CC(=O)[O-].CCCC[NH2+]CCO [N-(2-hydroxyethyl)butan-1-aminium acetate] | 1461.4
5. CCCCC(=O)[O-].CCCC[NH2+]CCO [N-(2-hydroxyethyl)butan-1-aminium pentanoate] | 1359.6

* * *

Details: 313.15 K; 101.33 kPa; Liquid; Frequency=3 MHz; Single path-length method
PROPERTY_NAME: speed of sound (m/s)

1. CCCC(=O)[O-].CCCC[NH2+]CCO [N-(2-hydroxyethyl)butan-1-aminium butyrate] | 1415.2
2. CCCCC(=O)[O-].CCCC[NH2+]CCO [N-(2-hydroxyethyl)butan-1-aminium pentanoate] | 1391.8
3. CCC(=O)[O-].CCCC[NH2+]CCO [N-(2-hydroxyethyl)butan-1-aminium propionate] | 1445.9
4. CC(=O)[O-].CCCC[NH2+]CCO [N-(2-hydroxyethyl)butan-1-aminium acetate] | 1494
5. CCCC[NH2+]CCO.O=C[O-] [N-(2-hydroxyethyl)butan-1-aminium formate] | 1561.4

* * *

Details: 318.15 K; 101.33 kPa; Liquid; Frequency=3 MHz; Single path-length method
Numbers after ± are expanded uncertainties.
PROPERTY_NAME: speed of sound

1) CCC(=O)[O-].CCCC[NH2+]CCO [N-(2-hydroxyethyl)butan-1-aminium propionate] | 1429.7 ± 3.7 m/s
2) CC(=O)[O-].CCCC[NH2+]CCO [N-(2-hydroxyethyl)butan-1-aminium acetate] | 1477.6 ± 3.7 m/s
3) CCCCC(=O)[O-].CCCC[NH2+]CCO [N-(2-hydroxyethyl)butan-1-aminium pentanoate] | 1375.7 ± 3.7 m/s
4) CCCC[NH2+]CCO.O=C[O-] [N-(2-hydroxyethyl)butan-1-aminium formate] | 1548.2 ± 3.7 m/s
5) CCCC(=O)[O-].CCCC[NH2+]CCO [N-(2-hydroxyethyl)butan-1-aminium butyrate] | 1398.7 ± 3.7 m/s

* * *

Reported speed of sound values are given for each entry in this list.
Details: 343.15 K; 101.33 kPa; Liquid; Frequency=3 MHz; Single path-length method
PROPERTY_NAME: speed of sound (m/s)

1) CCCC(=O)[O-].CCCC[NH2+]CCO [N-(2-hydroxyethyl)butan-1-aminium butyrate] | 1318.2
2) CC(=O)[O-].CCCC[NH2+]CCO [N-(2-hydroxyethyl)butan-1-aminium acetate] | 1397.2
3) CCCC[NH2+]CCO.O=C[O-] [N-(2-hydroxyethyl)butan-1-aminium formate] | 1483.4
4) CCCCC(=O)[O-].CCCC[NH2+]CCO [N-(2-hydroxyethyl)butan-1-aminium pentanoate] | 1296.6
5) CCC(=O)[O-].CCCC[NH2+]CCO [N-(2-hydroxyethyl)butan-1-aminium propionate] | 1350.1

* * *

Conditions: 323.15 K; 101.33 kPa; Liquid; Falling or rolling sphere viscometry
Respond with 1.0 for viscosity values of 100 mPa·s and above, 0.0 for values below.

1. CCCC[NH2+]CCO.O=C[O-] [N-(2-hydroxyethyl)butan-1-aminium formate] | 0.0
2. CCCC(=O)[O-].CCCC[NH2+]CCO [N-(2-hydroxyethyl)butan-1-aminium butyrate] | 1.0
3. CCC(=O)[O-].CCCC[NH2+]CCO [N-(2-hydroxyethyl)butan-1-aminium propionate] | 1.0
4. CCCCC(=O)[O-].CCCC[NH2+]CCO [N-(2-hydroxyethyl)butan-1-aminium pentanoate] | 1.0
5. CC(=O)[O-].CCCC[NH2+]CCO [N-(2-hydroxyethyl)butan-1-aminium acetate] | 0.0

* * *

Conditions: 298.15 K; 101.33 kPa; Liquid; Frequency=3 MHz; Single path-length method
Reported speed of sound values are given for each entry in this list.
PROPERTY_NAME: speed of sound (m/s)

1) CCCC[NH2+]CCO.O=C[O-] [N-(2-hydroxyethyl)butan-1-aminium formate] | 1602.4
2) CCCC(=O)[O-].CCCC[NH2+]CCO [N-(2-hydroxyethyl)butan-1-aminium butyrate] | 1466.6
3) CCC(=O)[O-].CCCC[NH2+]CCO [N-(2-hydroxyethyl)butan-1-aminium propionate] | 1496.1
4) CC(=O)[O-].CCCC[NH2+]CCO [N-(2-hydroxyethyl)butan-1-aminium acetate] | 1546.5
5) CCCCC(=O)[O-].CCCC[NH2+]CCO [N-(2-hydroxyethyl)butan-1-aminium pentanoate] | 1442.3

* * *

Details: 338.15 K; 101.33 kPa; Liquid; Frequency=3 MHz; Single path-length method
Reported speed of sound values are given for each entry in this list.
PROPERTY_NAME: speed of sound (m/s)

1. CCC(=O)[O-].CCCC[NH2+]CCO [N-(2-hydroxyethyl)butan-1-aminium propionate] | 1365.8
2. CCCCC(=O)[O-].CCCC[NH2+]CCO [N-(2-hydroxyethyl)butan-1-aminium pentanoate] | 1312.2
3. CCCC(=O)[O-].CCCC[NH2+]CCO [N-(2-hydroxyethyl)butan-1-aminium butyrate] | 1334.1
4. CC(=O)[O-].CCCC[NH2+]CCO [N-(2-hydroxyethyl)butan-1-aminium acetate] | 1413.2
5. CCCC[NH2+]CCO.O=C[O-] [N-(2-hydroxyethyl)butan-1-aminium formate] | 1496.4
